B1: ZNF8 (parent)
chain: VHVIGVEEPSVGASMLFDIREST

- Variants of: B1
- experimentDescription: protein stability index of a GFP-peptide fusion (GPS, HEK-293T) (PSI 1-6); higher = more stable;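 further: lentivirally expressed fusions sorted by FACS into six bins by GFP to DsRed ratio, PSI derived from sequencing read proportions per bin multiplied by bin number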
- runParameters: c terminus: native
measuredQuantity: protein stability index

Recorded protein stability index for "D18C" , please?
2.4

Let us now turn to "T23H"
2.45

Let us now turn to "E7Y"
2.91

Let us now turn to "G5V"
2.71

Let us now turn to "T23E"
2.37

Let us now turn to "D18Q"
1.98

Let us now turn to "I4Y"
2.16

Let us now turn to "G12P"
2.16

Let us now turn to "G12K"
1.9

Let us now turn to "E7C"
1.81

Let us now turn to "H2K"
2.29

Let us now turn to "G12Q"
1.88

Let us now turn to "V3R"
2.81

Let us now turn to "F17R"
3.08

Let us now turn to "M15V"
1.79

Let us now turn to "R20I"
1.86

Let us now turn to "I19V"
2.38

Let us now turn to "E21L"
2.64

Let us now turn to "G12H"
2.1

Let us now turn to "V1H"
3.78

Let us now turn to "S14W"
3.13

Let us now turn to "A13C"
1.34

Let us now turn to "D18S"
1.75

Let us now turn to "H2F"
1.97

Let us now turn to "R20H"
2.68

Let us now turn to "V11M"
1.82

Let us now turn to "I4M"
2.77

Let us now turn to "L16S"
2.83

Let us now turn to "S10G"
2.1

Let us now turn to "L16C"
2.19

Let us now turn to "F17K"
3.4

Let us now turn to "D18I"
3.24

Let us now turn to "P9S"
1.73

Let us now turn to "G12M"
1.71

Let us now turn to "A13S"
1.96

Let us now turn to "S14K"
2

Let us now turn to "S10N"
2.23

Let us now turn to "M15H"
2.4

Let us now turn to "G12A"
1.93

Let us now turn to "I4S"
3.63

Let us now turn to "V6L"
2.25

Let us now turn to "E21S"
1.76

Attribution: the supplement of paper PMC10567573
